Hey, just so you know, these numbers are from ChEMBL document CHEMBL5058577.

System: Fibroblast
Assay: Multiplex assay against human fibroblast
Assay type: toxicity, cell-based
Conditions: 24 h, 10 µM, compound concentration 10 uM, replicate 1
Please go through the items and note down their Population Tubulin-Different-Phenotype (%).
Note: unit % is implicit; provide only the numeric part.

# Population Tubulin-Different-Phenotype (%) (compound: Cc1noc(-c2ccc(-c3ccc(CC(=O)O)cc3)cc2)c1NC(=O)O[C@H](C)c1ccccc1Cl ) is 29

Form field Population Tubulin-Different-Phenotype (%), entry NCCc1cn(S(=O)(=O)c2c(Cl)nc3sccn23)c2ccccc12.O=C(O)C(=O)O : 89

Population Tubulin-Different-Phenotype (%) for C[C@H](N)COC(=O)[C@@H](CCCCN)NC(=O)Cc1c(-c2ccc3ccccc3c2)[nH]c2c1ccc1ccccc12 is 31

Value of Population Tubulin-Different-Phenotype (%) reported for the compound O=C(CCCc1ccccc1)Nc1nc2ccccc2c(=O)s1 is 15

For Cc1sc2c(c1C)C(c1ccc(Cl)cc1)=N[C@@H](CC(=O)NCCCCCCCCNC(=O)COc1cccc3c1C(=O)N(C1CCC(=O)NC1=O)C3=O)c1nnc(C)n1-2 (stereo not given in full) the compound record lists Population Tubulin-Different-Phenotype (%) as 47

# Population Tubulin-Different-Phenotype (%) (compound: Cl.NCCc1ccc(O)c(O)c1 [DOPAMINE HYDROCHLORIDE] ) is 22

Kindly note the recorded Population Tubulin-Different-Phenotype (%) for O=C1[C@H](Cc2ccc(O)cc2)N2C(=O)CCN(C(=O)NCc3ccccc3)[C@H]2CN1Cc1cccc2ccccc12 , which is 83

The recorded Population Tubulin-Different-Phenotype (%) for CCc1cc2cc(NS(=O)(=O)c3ccc(C#N)cc3)ccc2n(CC)c1=O is 59

# Population Tubulin-Different-Phenotype (%) (compound: Cc1cccc(NC(=O)CN2CCC(c3ccccn3)CC2)c1.Cl.Cl ) is 38

Kindly note the recorded Population Tubulin-Different-Phenotype (%) for CN1CCN(c2cc(-c3ccccc3)nc(N)n2)CC1 , which is 41

# compound CC(/C=C1\SC(=S)N(CCCC(=O)Nc2ccc(C(=O)O)c(O)c2)C1=O)=C\c1ccccc1 ; its Population Tubulin-Different-Phenotype (%) = 25

response.value for Br.CS(=O)(=O)Nc1c(O)ccc2c1CCCC2C1=NCCN1 (stereo not given) (field: Population Tubulin-Different-Phenotype (%)) = 24

So, Cc1onc(-c2ccccc2Cl)c1C(=O)N(C)c1ccc(Cl)cc1 ? Its Population Tubulin-Different-Phenotype (%) was 32

In plain terms, N#Cc1c(Oc2cccc(OS(=O)(=O)CCCC(F)(F)F)c2)cccc1C(F)(F)F has a documented Population Tubulin-Different-Phenotype (%) of 43

Recorded result, Cl.N=C(N)NC(=O)Cc1c(Cl)cccc1Cl [GUANFACINE HYDROCHLORIDE] , Population Tubulin-Different-Phenotype (%): 19

The recorded Population Tubulin-Different-Phenotype (%) for CC(C)(C)c1cc(NC(=O)Nc2ccc(-c3cn4c(n3)sc3cc(OCCN5CCOCC5)ccc34)cc2)no1 is 71

Sample CCCCCC(O)/C=C/[C@H]1C(=O)CC(O)C1C/C=C\CCCC(=O)O (stereo not given in full) ; Population Tubulin-Different-Phenotype (%) observed: 21

Entry under test: CC[C@@H](C)Nc1nc(C)nc2c(-c3ccc(OC)nc3C)c(C)nn12 . Its Population Tubulin-Different-Phenotype (%) was 68

Documented Population Tubulin-Different-Phenotype (%) of CC(=O)Nc1cccc2c1c(Sc1ccc(Cl)cc1)c(C)n2CC(=O)O : 17

Entry COc1ccccc1N1CCN(C[C@@H](C(=O)NC(C)(C)C)c2ccccc2)CC1.Cl.Cl — recorded Population Tubulin-Different-Phenotype (%) = 63

---

System: U2OS
Test: Multiplex assay against U2OS
Format: toxicity, cell-based
Conditions: human, 24 h, 10 µM, compound concentration 10 uM, replicate 1
With a cut-off of 10%, any Population Membrane Permeable-Phenotype (%) strictly below it is called met; any Population Membrane Permeable-Phenotype (%) meeting it or above is called not met.

Query string: Lab log: compare recorded Population Membrane Permeable-Phenotype (%) with 10%; is it strictly lower for CN[C@@H](C)C(=O)N[C@H](C(=O)N1CCC[C@H]1C(=O)Nc1snnc1-c1ccccc1)C1CCCCC1 ?
Result string: not met

Query string: Regarding CCCCCC(O)/C=C/[C@H]1C(=O)CC(O)C1C/C=C\CCCC(=O)O (stereo partly specified) , kindly confirm whether its Population Membrane Permeable-Phenotype (%) is beneath 10%.
Result string: met

Query string: Is it true that Population Membrane Permeable-Phenotype (%) reported for O=C1[C@H](Cc2ccc(O)cc2)N2C(=O)CCN(C(=O)NCc3ccccc3)[C@H]2CN1Cc1cccc2ccccc12 is less than 10%?
Result string: not met

Query string: Quick check: Population Membrane Permeable-Phenotype (%) of O=C(CCCc1ccccc1)Nc1nc2ccccc2c(=O)s1 under 10%?
Result string: met

---

Tested on: HEK-293T
Experiment: Multiplex assay against HEK293T
Format: toxicity, cell-based
Conditions: human, 12 h, 1 µM, compound concentration 1 uM, replicate 1
Rule: Population Fragmented Nuclei (%) of 6% or more gives yes (1); anything lower gives no (0).

Query string: Given the entry Br.CS(=O)(=O)Nc1c(O)ccc2c1CCCC2C1=NCCN1 (stereo not drawn) , answer whether its Population Fragmented Nuclei (%) meets or surpasses 6%.
Result string: yes (1)

Query string: Is it the case that Cl.N=C(N)NC(=O)Cc1c(Cl)cccc1Cl [GUANFACINE HYDROCHLORIDE] has Population Fragmented Nuclei (%) reaching or exceeding 6%?
Result string: no (0)

Query string: Textbook exercise: given the entry CN[C@@H](C)C(=O)N[C@H](C(=O)N1CCC[C@H]1C(=O)Nc1snnc1-c1ccccc1)C1CCCCC1 , state whether its Population Fragmented Nuclei (%) is greater than or equal to 6%.
Result string: no (0)

Query string: Has CCCCC(=O)N(Cc1ccc(-c2ccccc2-c2nnn[nH]2)cc1)[C@H](C(=O)O)C(C)C a recorded Population Fragmented Nuclei (%) greater than or equal to 6%?
Result string: yes (1)

Query string: Could you tell me if the measured Population Fragmented Nuclei (%) of CCCOc1ccc2[nH]cc(C3=CCNCC3)c2n1.Cl reaches 6% or more?
Result string: no (0)

Query string: Dear colleague, could you confirm whether COC[C@@H](c1ccc(C(F)(F)F)cc1)N1CCN(C2(C)CCN(C(=O)c3c(C)ncnc3C)CC2)C[C@@H]1C.O=C(O)/C=C\C(=O)O [VICRIVIROC MALEATE] has Population Fragmented Nuclei (%) at or above 6%?
Result string: yes (1)

Query string: # check: Population Fragmented Nuclei (%) of N#Cc1c(Oc2cccc(OS(=O)(=O)CCCC(F)(F)F)c2)cccc1C(F)(F)F is greater than or equal to 6%
Result string: no (0)

Query string: Quick check, Population Fragmented Nuclei (%) >= 6%? CCCCCC(O)/C=C/[C@H]1C(=O)CC(O)C1C/C=C\CCCC(=O)O (stereo partly drawn)
Result string: yes (1)

Query string: Given the entry CC(C)c1noc(N2CCC(COc3ccc(-c4ccc(S(C)(=O)=O)cc4)nc3)CC2)n1 , answer whether its Population Fragmented Nuclei (%) meets or surpasses 6%.
Result string: yes (1)

Query string: Dear colleague, could you confirm whether O=C(CCCc1ccccc1)Nc1nc2ccccc2c(=O)s1 has Population Fragmented Nuclei (%) at or above 6%?
Result string: no (0)

Query string: Kindly determine if Population Fragmented Nuclei (%) recorded for N#Cc1cc(F)cc(-c2nc(-c3ccc(F)cn3)no2)c1 is above or exactly 6%.
Result string: yes (1)

Query string: Reported Population Fragmented Nuclei (%) reaches at least 6% for CN(C)C(=O)Cn1cc(-c2ccc(-c3cncc4ccccc34)cc2)cn1 ?
Result string: no (0)

Query string: Is the recorded value of Population Fragmented Nuclei (%) equal to or greater than 6% for this compound? CCCCC1=NC2(CCCC2)C(=O)N1Cc1ccc(-c2ccccc2-c2nnn[nH]2)cc1
Result string: yes (1)

Query string: Exam item: decide whether the reported Population Fragmented Nuclei (%) for CN1CCN(c2cc(-c3ccccc3)nc(N)n2)CC1 is at least 6%.
Result string: yes (1)

Query string: Would you say CC[C@@H](C)Nc1nc(C)nc2c(-c3ccc(OC)nc3C)c(C)nn12 shows Population Fragmented Nuclei (%) at minimum 6%?
Result string: yes (1)

Query string: Has CC(C)(C)c1cc(NC(=O)Nc2ccc(-c3cn4c(n3)sc3cc(OCCN5CCOCC5)ccc34)cc2)no1 a recorded Population Fragmented Nuclei (%) greater than or equal to 6%?
Result string: no (0)

Query string: Decide: is the reported value of Population Fragmented Nuclei (%) for NCCc1cn(S(=O)(=O)c2c(Cl)nc3sccn23)c2ccccc12.O=C(O)C(=O)O equal to or greater than 6%?
Result string: no (0)

Query string: Determine whether measured Population Fragmented Nuclei (%) meets or exceeds 6% for O=C(NCCN1CCC(n2c(=O)[nH]c3cc(Cl)ccc32)CC1)c1ccc(F)cc1 [HALOPEMIDE]
Result string: no (0)

Query string: Please indicate if the recorded Population Fragmented Nuclei (%) for Cc1onc(-c2ccccc2Cl)c1C(=O)N(C)c1ccc(Cl)cc1 meets or exceeds 6%.
Result string: yes (1)

Query string: Please check the record Cc1sc2c(c1C)C(c1ccc(Cl)cc1)=N[C@@H](CC(=O)NCCCCCCCCNC(=O)COc1cccc3c1C(=O)N(C1CCC(=O)NC1=O)C3=O)c1nnc(C)n1-2 (stereo partly drawn) and state if its Population Fragmented Nuclei (%) is at or above 6%.
Result string: no (0)

Query string: Please tell me: is the compound CCc1cc2cc(NS(=O)(=O)c3ccc(C#N)cc3)ccc2n(CC)c1=O at or over 6% in terms of Population Fragmented Nuclei (%)?
Result string: yes (1)

Query string: Entry COc1ccccc1N1CCN(C[C@@H](C(=O)NC(C)(C)C)c2ccccc2)CC1.Cl.Cl : is its Population Fragmented Nuclei (%) no less than 6%?
Result string: yes (1)

Query string: Form field: Population Fragmented Nuclei (%) at least 6%? Entry: CC(C)COc1ccc(CNC(=O)N(Cc2ccc(F)cc2)C2CCN(C)CC2)cc1
Result string: no (0)
